Taken from ChEMBL document CHEMBL2203227.

system tested: High affinity choline transporter 1 (Homo sapiens, UniProt Q9GZV3)
Sequence (Q9GZV3 whole entry): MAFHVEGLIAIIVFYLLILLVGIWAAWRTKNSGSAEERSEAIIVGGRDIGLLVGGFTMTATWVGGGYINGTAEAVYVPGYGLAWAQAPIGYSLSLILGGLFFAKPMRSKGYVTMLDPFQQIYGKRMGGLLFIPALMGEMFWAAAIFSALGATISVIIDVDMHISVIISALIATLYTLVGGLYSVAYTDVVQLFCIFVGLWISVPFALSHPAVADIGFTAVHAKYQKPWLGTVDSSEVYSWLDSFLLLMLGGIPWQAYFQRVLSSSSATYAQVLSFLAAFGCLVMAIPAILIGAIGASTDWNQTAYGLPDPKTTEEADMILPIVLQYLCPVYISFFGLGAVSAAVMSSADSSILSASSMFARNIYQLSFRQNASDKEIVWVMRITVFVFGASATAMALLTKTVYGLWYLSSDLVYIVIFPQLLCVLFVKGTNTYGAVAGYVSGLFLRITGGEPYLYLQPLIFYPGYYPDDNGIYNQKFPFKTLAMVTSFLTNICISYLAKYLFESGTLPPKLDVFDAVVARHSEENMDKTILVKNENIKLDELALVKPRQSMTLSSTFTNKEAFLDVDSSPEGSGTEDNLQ
experiment description: Antagonist activity at CHT1
result type: IC50 (µM)
Give the quantity in µM, number only.

Query string: Return IC50 (reported value) for this compound: "Cn1c2cnc1OCC/C=C\CCCCOc1ccccc1-2"
Result string: 3.2

###

experiment description: Inhibition of GGTase
result type: IC50 (nM)
Please state the figure in nM; there is no need to write the unit.

// worked examples, IC50 included
{"columns": ["mol", "IC50 / nM"],
 "data": [
  ["N#Cc1ccc2cc1Oc1ccc3cccc(c3c1)N1CCN(CC1=O)Cc1cncn1C2", 301],
  ["C[C@H]1NCc2cncn2Cc2ccc(C#N)c(c2)Oc2ccc3cccc(c3c2)NC1=O", 313],
  ["N#Cc1ccc2cc1Oc1ccc(CCC3CCCCC3)c(c1)CN1CCN(CC1=O)Cc1cncn1C2", 1.7]
]}

Kindly consider the entry below.
Query string: Answer with the recorded IC50 of "N#Cc1ccc2cc1Oc1ccc3c(c1)[C@@H](CC3)N1CC[C@@H](NCc3cncn3C2)C1=O" only.
Result string: 18000

###

experiment description: Inhibition of HIV protease
Parameters: species or system Human immunodeficiency virus
Listing of recorded Ki by entry.
// units = nM; emit number, no label

{"columns": ["mol", "unit text", "Ki"],
 "data": [
  ["COc1ccc(S(=O)(=O)N(CC(C)C)C[C@@H](O)[C@@H]2CCCCCCCCOc3c(O)cccc3C(=O)N2)cc1", "nM", 0.7],
  ["CC[C@H](C)[C@H](NC(=O)[C@@H]1CCCN1C[C@H](O)[C@@H]1Cc2ccc(cc2)OCCCC(=O)N[C@@H](CC(N)=O)C(=O)N1)C(=O)N[C@H](C(N)=O)C(C)C", "nM", 12]
]}

Query string: Dear colleague, please send me the reported Ki for "CC(C)CCN(C[C@@H](O)[C@@H]1Cc2ccc(cc2)OCCCC(=O)N[C@@H](CC(N)=O)C(=O)N1)S(=O)(=O)c1ccccc1" when you can.
Result string: 0.6
